Values from patent US9790233B2

Listed compounds paired with reported IC50
- system: 15-PGDH protein (Homo sapiens (Human))
- Sequence (P15428 whole entry): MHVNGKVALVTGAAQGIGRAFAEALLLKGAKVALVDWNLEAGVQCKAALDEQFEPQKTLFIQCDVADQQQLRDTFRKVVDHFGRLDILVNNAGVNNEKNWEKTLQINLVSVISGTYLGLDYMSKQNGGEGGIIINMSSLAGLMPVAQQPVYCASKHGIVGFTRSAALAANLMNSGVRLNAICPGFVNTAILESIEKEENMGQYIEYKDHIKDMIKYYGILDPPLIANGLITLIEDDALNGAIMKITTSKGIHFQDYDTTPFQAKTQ
- assay protocol: Inhibition of enzymatic activity of recombinant 15-PGDH in vitro (tritium transfer from PGE2 or NADH fluorescence)
- Format: biochemical
- setup conditions: recombinant 15-PGDH in vitro; read-out: Enzyme inhibition (IC50)
Report the figure in µM without appending any unit label.

Identify measured IC50 associated with COc1ccc(OC)c(N(CC(=O)Nc2ccnnc2)S(=O)(=O)c2ccccc2)c1
5

Give the value of IC50 reported for the following: COc1ccc(OC)c(N(CC(=O)Nc2ccncc2)S(=O)(=O)c2ccccc2)c1
2.67

Give me measured IC50, please, for this compound: COc1ccc(S(=O)(=O)N(CC(=O)Nc2ccncc2)c2cc(OC)ccc2OC)cc1
0.427

* * *

- System: 15-PGDH luciferase fusion construct in Vaco503 reporter cell line
- assay protocol: 15-PGDH-luciferase fusion gene reporter induction, V503 cells
- Type: cell-based
- setup conditions: read-out: V503-3H9-7 reporter activity, % ([…]), […]; Table 18; read-out: V503-3H9-7 reporter activity, % (2.5 μM)
quantity measured: activation at […]
Provide the measurement as a number trailed by its unit.

>>> observed_value("COC(=O)c1ccccc1NC(=O)CN(c1cc(OC)ccc1OC)S(=O)(=O)c1ccccc1 [333449-58-4]")
"50.1%"
>>> observed_value("COc1ccc(Cl)cc1N(CC(=O)Nc1cccnc1)S(=O)(=O)c1ccccc1 [328012−52−8]")
"243%"
>>> observed_value("COc1cccc(N(CC(=O)Nc2cccnc2)S(=O)(=O)c2ccccc2)c1 [335392−39−7]")
"18.9%"
>>> observed_value("COc1ccc(OC)c(N(CC(=O)Nc2cccnc2)S(=O)(=O)c2ccc(OC)c(OC)c2)c1 [680599−58−0]")
"16.7%"
>>> observed_value("COc1ccc(OC)c(N(CC(=O)Nc2cccnc2)S(=O)(=O)c2ccc(C)cc2)c1 [505072−23−1]")
"242%"

Identify measured activation at […] obtained with 15-PGDH luciferase fusion construct in Vaco503 reporter cell line for COc1ccc(OC)c(N(CC(=O)Nc2ccc(Cl)cc2)S(=O)(=O)c2ccccc2)c1 [339589-53-6] .
200%

Send back 15-PGDH luciferase fusion construct in Vaco503 reporter cell line activation at […] of O=C(CN(c1ccccc1)S(=O)(=O)c1ccccc1)Nc1cccnc1 [331727−07−2] only.
8.13%

Answer briefly: activation at […] recorded on 15-PGDH luciferase fusion construct in Vaco503 reporter cell line for COc1ccc(OC)c(N(CC(=O)Nc2ccc(C)cc2)S(=O)(=O)c2ccccc2)c1 [311333-86-5]
102%

Provide measured activation at […] on 15-PGDH luciferase fusion construct in Vaco503 reporter cell line for CCOc1ccc(N(CC(=O)Nc2cccnc2)S(=O)(=O)c2ccccc2)cc1 [428473−22−7] please.
19.1%

Fetch value of activation at […] on 15-PGDH luciferase fusion construct in Vaco503 reporter cell line for COc1ccc(N(CC(=O)Nc2cccnc2)S(=O)(=O)c2ccccc2)c(OC)c1 [310875−38−8] .
64.1%

Write activation at […] of COc1ccc(OC)c(N(CC(=O)Nc2cccnc2)S(C)(=O)=O)c1 [527699−66−7] ; system used: 15-PGDH luciferase fusion construct in Vaco503 reporter cell line
38.8%
